# Target desc: α4β1 (Homo sapiens, UniProt P05556+P13612)
# Construct: host or cells: Jurkat
# Assay notes: Jurkat cell adhesion to immobilized VCAM-1
# Assay type: cell-based
# Experimental conditions: Jurkat cells, ligand VCAM-1; read-out: IC50, cell adhesion
pIC50: −log10 of the molar value.
Property measured: pIC50

Give α4β1 (Homo sapiens, UniProt P05556+P13612) pIC50 for Echistatin (ECESGPCCRNCKFLKEGTICKRARGDDMDDYCNGKTCDCPRNPHKGPAT) [reference compound] < 5.00
